Target or system: Macrophage migration inhibitory factor (Homo sapiens)
Sequence (P14174 whole entry): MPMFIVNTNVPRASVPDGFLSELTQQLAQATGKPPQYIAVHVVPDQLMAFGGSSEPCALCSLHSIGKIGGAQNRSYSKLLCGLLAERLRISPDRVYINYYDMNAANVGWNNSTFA
pIC50: −log10 of the molar value.
Values of pIC50 greater than or equal to 5 map to yes (1); values below map to no (0).

Reported pIC50 at or above 5? CC(C)(C)COC(=O)CC1CC(c2ccc(O)cc2)=NO1 (configuration not stated)
yes (1)

Does the reported pIC50 for CCCOC(=O)CC1CC(c2ccc(O)cc2)=NO1 (configuration not stated) fall at or above the 5 mark?
yes (1)

Record CC(C)OC(=O)CC1CC(c2ccc(O)cc2)=NO1 (configuration not stated) ; criterion: pIC50 no lower than 5. Met?
yes (1)

Assess whether reported pIC50 for CCCCOC(=O)CC1CC(c2ccc(O)cc2)=NO1 (configuration not stated) sits at 5 or higher.
yes (1)

Given COc1ccc(NC(=O)CC2CC(c3ccc(O)cc3)=NO2)cc1 (configuration not stated) , state whether its pIC50 is at least 5.
no (0)

Reference source: ChEMBL document CHEMBL1138072
